Molecular target: biotinylated MSLN (human MSLN in the MSLN/MUC16 competition ELISA) (human, UniProt Q13421 296-598, limits assumed, biotinylated)
Test: competition ELISA, scFv titrated with biotinylated MSLN; competitor coated MUC16
Consider the following binders and their measured rel. IC50 (IC50, Amatuximab/IC50, scFv) readings.
Only the number, expressed in ratio, is required.

Q: So what does the record say about rel. IC50 (IC50, Amatuximab/IC50, scFv) for reference anti-MSLN scFv PRO1795 (scFv, also called 54-22-H03-sc01) scFv: DIQMTQSPSSLSASVGDRVTITCQASESIGNYLAWYQQKPGKAPKLLIYSASTLASGVPSRFSGSGSGTDFTLTISSLQPEDFATYYCQSTDYGDSYIFGTGTKVTVLGGGGGSGGGGSGGGGSGGGGSEVQLVESGGGLVQPGGSLRLSCAASGISVSNDYYMCWVRQAPGKGLEWIGCISTYIGNTHYASWAKGRFTISRDNSKNTVYLQMNSLRAEDTAVYYCAKNAGYPGYRYAIDLWGQGTLVTVSS ?
Result: 0.87
